Target: Orexin receptor type 2 (Homo sapiens, UniProt O43614)
Sequence (O43614 whole entry): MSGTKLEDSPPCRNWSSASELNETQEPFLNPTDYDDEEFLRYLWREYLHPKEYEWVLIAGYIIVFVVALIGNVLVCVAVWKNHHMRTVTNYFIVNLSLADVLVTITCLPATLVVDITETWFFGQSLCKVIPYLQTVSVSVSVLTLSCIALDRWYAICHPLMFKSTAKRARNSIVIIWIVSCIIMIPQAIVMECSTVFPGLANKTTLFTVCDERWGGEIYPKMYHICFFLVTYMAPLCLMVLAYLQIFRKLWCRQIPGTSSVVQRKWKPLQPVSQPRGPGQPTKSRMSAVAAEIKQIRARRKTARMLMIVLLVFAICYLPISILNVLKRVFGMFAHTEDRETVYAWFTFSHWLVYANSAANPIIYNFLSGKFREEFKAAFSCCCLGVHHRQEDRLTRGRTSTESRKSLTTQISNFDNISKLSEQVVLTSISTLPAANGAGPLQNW
pKi: −log10 of the molar value.
readout: pKi

Exercise: Record request: pKi value, item O=C(c1cccn2cncc12)N1CCC(F)(F)C(Oc2ccc3ccccc3n2)C1 (racemic)
Solution: < 4.90

Exercise: Same thing, different compound: O=C(c1cccc2cncn12)N1CCC(F)(F)C(Oc2ccc3ccccc3n2)C1 (racemic)
Solution: < 5.68

Exercise: Same thing, different compound: O=C(c1ccc(F)cc1)N1CCC(F)(F)C(Oc2ccc3ccccc3n2)C1 (racemic)
Solution: < 5.36

Exercise: Same thing, different compound: O=C(c1ccnc2[nH]cnc12)N1CCC(F)(F)C(Oc2ccc3ccccc3n2)C1 (racemic)
Solution: < 5.23

Exercise: Same thing, different compound: O=C(c1cccc2[nH]ncc12)N1CCC(F)(F)[C@@H](Oc2ccc3ccccc3n2)C1
Solution: < 5.71

Exercise: Same thing, different compound: COc1cccc(C(=O)N2CCC(F)(F)C(Oc3ccc4ccccc4n3)C2)c1 (racemic)
Solution: < 5.36

Origin of the recorded values: ChEMBL document CHEMBL3867477
